# Assayed System: Amine oxidase [flavin-containing] A (Homo sapiens)
# Sequence (P21397 whole entry): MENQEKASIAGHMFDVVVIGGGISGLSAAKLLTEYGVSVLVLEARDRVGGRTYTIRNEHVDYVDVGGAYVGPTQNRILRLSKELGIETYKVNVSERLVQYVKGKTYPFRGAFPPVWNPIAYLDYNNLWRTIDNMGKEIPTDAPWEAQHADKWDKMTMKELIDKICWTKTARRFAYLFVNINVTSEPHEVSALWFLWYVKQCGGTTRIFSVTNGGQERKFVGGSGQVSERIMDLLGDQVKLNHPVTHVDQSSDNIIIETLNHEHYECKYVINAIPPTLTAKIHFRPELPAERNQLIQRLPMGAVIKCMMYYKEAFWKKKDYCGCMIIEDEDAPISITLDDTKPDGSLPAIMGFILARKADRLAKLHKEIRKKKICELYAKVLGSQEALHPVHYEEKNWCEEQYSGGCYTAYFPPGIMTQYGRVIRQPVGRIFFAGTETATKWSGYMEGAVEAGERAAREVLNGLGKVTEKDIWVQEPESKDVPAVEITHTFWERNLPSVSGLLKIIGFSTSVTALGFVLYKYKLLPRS
# Method Summary: Inhibition of recombinant human MAO-A assessed as reduction in H2O2 production using p-tyramine as substrate preincubated for 15 mins followed by substrate addition by Amplex red reagent based fluorescence assay
Measurement Kind: IC50 (µM)

CCN(CC)CCCCOc1ccc(/C=C2\COc3ccccc3C2=O)cc1 52.9
CN(C)CCCCCCOc1ccc(/C=C2\COc3ccccc3C2=O)cc1 39.1
CN(C)CCOc1ccc(/C=C2\COc3ccccc3C2=O)cc1 38.1
CCN(CC)CCOc1ccc(/C=C2\COc3ccccc3C2=O)cc1 46.6
